- protocolText: method code SF, from Korenman, Y. (1975). Extraction of hydroxybenzoic acids and some of their derivatives from aqueous solution. Zh. Prikl. Khim., 48(6)1472-1474.
- studyConditions: pH 2.0
Assign logD to each entry below.
API doc: respond with a numeric literal and nothing else, no unit.

# logD of `O=C(O)c1ccc(O)c(O)c1O` = 1.05

# logD of `O=C(O)c1cc(Br)ccc1O` = 2.87

----------
- protocolText: method code SF, from DOI: 10.1248/cpb.18.708
- studyConditions: pH 6.4
propertyName: logD
API doc: respond with a numeric literal and nothing else, no unit.

# logD of `COc1ccc(NS(=O)(=O)c2ccc(N)cc2)nn1` = 0.4

The reported numbers originate from the SangsterLogP compilation.
